molecular target: dAsCas12a S542R (Acidaminococcus sp., UniProt U2UMQ6 1-1307, S542R;D908A;E993A;D1235A); assay: Spec-seq (native PAGE EMSA with sequencing of bound and unbound); 25 mM Tris-HCl pH 7.4, 150 mM KCl, 5 mM MgCl2, 10% glycerol, 1 mM DTT, 40 ng/uL salmon sperm DNA; 400 nM Cas12a, 480 nM crRNA, 50 nM library, 37 C 1 h; native PAGE at room temperature; high values mean tight binding; settings: protein: recombinant;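 note: relative affinity from the bound to unbound sequence frequency ratio in Spec-seq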
# key: entry, value: binding signal

BINDER	UNITS LABEL	binding signal
AGGA (dsDNA) DNA 1: GCTATCTAGTGCTCAGTACGCACTGAGGAAGGAAACTTCTGGCAGGACCAGGTCATGAGATCGGAAGAGCACACGTCTGAACTCCAGTCA DNA 2: TGACTGGAGTTCAGACGTGTGCTCTTCCGATCTCATGACCTGGTCCTGCCAGAAGTTTCCTTCCTCAGTGCGTACTGAGCACTAGATAGC RNA: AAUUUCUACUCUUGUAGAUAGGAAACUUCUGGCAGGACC	lnKA	-8.24
GAAG (dsDNA) DNA 1: GCTATCTAGTGCTCAGTACGCACTGGAAGAGGAAACTTCTGGCAGGACCAGGTCATGAGATCGGAAGAGCACACGTCTGAACTCCAGTCA DNA 2: TGACTGGAGTTCAGACGTGTGCTCTTCCGATCTCATGACCTGGTCCTGCCAGAAGTTTCCTCTTCCAGTGCGTACTGAGCACTAGATAGC RNA: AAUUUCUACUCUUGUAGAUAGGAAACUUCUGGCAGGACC	lnKA	-8.23
AGGT (dsDNA) DNA 1: GCTATCTAGTGCTCAGTACGCACTGAGGTAGGAAACTTCTGGCAGGACCAGGTCATGAGATCGGAAGAGCACACGTCTGAACTCCAGTCA DNA 2: TGACTGGAGTTCAGACGTGTGCTCTTCCGATCTCATGACCTGGTCCTGCCAGAAGTTTCCTACCTCAGTGCGTACTGAGCACTAGATAGC RNA: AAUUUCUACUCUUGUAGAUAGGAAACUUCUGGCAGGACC	lnKA	-8.5
